These entries and their values trace back to patent US20190359719A1.

Catalogue of pIC50 readings, one per entry.
# target or system: T1, recombinant c-Met extracellular domain (R&D Systems cat#358-MT-100/CF) (UniProt P08581 25-932)
# T1 chain: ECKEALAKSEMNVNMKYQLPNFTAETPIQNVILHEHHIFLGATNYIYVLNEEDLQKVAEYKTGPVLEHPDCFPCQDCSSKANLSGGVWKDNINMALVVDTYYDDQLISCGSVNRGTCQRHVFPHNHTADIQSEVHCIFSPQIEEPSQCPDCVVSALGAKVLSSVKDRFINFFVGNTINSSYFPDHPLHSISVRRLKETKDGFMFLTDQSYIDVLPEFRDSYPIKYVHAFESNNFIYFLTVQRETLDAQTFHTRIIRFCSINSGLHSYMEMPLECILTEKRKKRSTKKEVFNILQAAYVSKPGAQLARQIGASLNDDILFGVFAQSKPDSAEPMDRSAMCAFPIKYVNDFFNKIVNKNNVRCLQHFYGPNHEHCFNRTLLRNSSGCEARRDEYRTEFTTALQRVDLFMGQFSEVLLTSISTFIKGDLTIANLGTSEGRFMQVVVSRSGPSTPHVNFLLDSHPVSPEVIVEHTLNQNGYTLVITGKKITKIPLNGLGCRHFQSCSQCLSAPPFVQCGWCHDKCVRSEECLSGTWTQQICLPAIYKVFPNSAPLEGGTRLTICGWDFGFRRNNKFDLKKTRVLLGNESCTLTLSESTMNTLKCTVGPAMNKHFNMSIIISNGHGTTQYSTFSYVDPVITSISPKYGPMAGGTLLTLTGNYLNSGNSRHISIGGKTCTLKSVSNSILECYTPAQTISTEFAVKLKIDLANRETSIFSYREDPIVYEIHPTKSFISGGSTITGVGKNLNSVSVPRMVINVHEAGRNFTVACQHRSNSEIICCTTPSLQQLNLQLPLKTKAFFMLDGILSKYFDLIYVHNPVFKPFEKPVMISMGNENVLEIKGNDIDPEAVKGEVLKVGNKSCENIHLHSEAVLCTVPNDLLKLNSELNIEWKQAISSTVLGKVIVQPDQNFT
# experiment: ELISA, blocking of HGF binding to c-Met
Please treat pIC50 as minus the base-10 logarithm of the molar concentration.

Some solved entries appear below for comparison.
binder="A1-32 anti-c-Met antibody (antibody, V domains shown) VH: QVQLQESGPGLVKPSQTLSLTCTVSGGSISSGGYYWSWIRQHPGKGLEWIGESTHSGSTNYNPSLDSRVTISVDTSKNQFSLKLSSVTAADTAVYYCARGRDGYYLDQWGQGTLVTVSS VL: LPVLTQPASVSGSPGQSITISCTGTSFDVGGYPYVSWYQQHPGKAPKLMIYDVSDRPSGVSTRFSGSKSGNTASLTISGLQAEDEADYYCSSFRSSAALVVFGGGTKLTVL" reported_result=9.04
binder="A1-6 anti-c-Met antibody (antibody, V domains shown) VH: QVQLQESGPGLVKPSQTLSLTCTVSGGSISSGGYYWSWIRQHPGKGLEWIGEITHSGSTNYNPSLKSRVTISVDTSKNQFSLKLSSVTAADTAVYYCARGRDGYDIDAWGQGTLVTVSS VL: LPVLTQPASVSGSPGQSITISCTGTSWDVGGYPYVSWYQQHPGKAPKLMIYDVSDRPSGVSTRFSGSKSGNTASLTISGLQAEDEADYYCSSYRSVSALVVFGGGTKLTVL" reported_result=8.87

binder A1-8 (antibody, V domains shown) VH: QVQLQESGPGLVKPSQTLSLTCTVSGGSISSGGYYWSWIRQHPGKGLEWIGEISHSGSTNYNPSLESRVTISVDTSKNQFSLKLSSVTAADTAVYYCARGRDGYDLDRWGQGTLVTVSS VL: LPVLTQPASVSGSPGQSITISCTGTSSDVGGYPYVSWYQQHPGKAPKLMIYRVSDRPSGVSTRFSGSKSGNTASLTISGLQAEDEADYYCSSYRSSAALVVFGGGTKLTVL , pIC50 observed: 8.94

binder A1-9 anti-c-Met antibody (antibody, V domains shown) VH: QVQLQESGPGLVKPSQTLSLTCTVSGGSISSGGYYWSWIRQHPGKGLEWIGEISHSGSTNYNPSLKSRVTISVDTSKNQFSLKLSSVTAADTAVYYCARGRDGYYLDQWGQGTLVTVSS VL: LPVLTQPASVSGSPGQSITISCTGTSSDVGGYNYVSWYQQHPGKAPKLMIYNVSDRPSGVSTRFSGSKSGNTASLTISGLQAEDEADYYCSSFRSSSALVVFGGGTKLTVL , pIC50 observed: 8.76

binder A1 anti-c-Met antibody in IgG format (antibody, V domains shown) VH: QVQLQESGPGLVKPSQTLSLTCTVSGGSISSGGYYWSWIRQHPGKGLEWIGEINHSGSTNYNPSLKSRVTISVDTSKNQFSLKLSSVTAADTAVYYCARGRDGYDFDPWGQGTLVTVSS VL: LPVLTQPASVSGSPGQSITISCTGTSSDVGGYNYVSWYQQHPGKAPKLMIYDVSDRPSGVSTRFSGSKSGNTASLTISGLQAEDEADYYCSSYRSSSALVVFGGGTKLTVL , pIC50 observed: 8.76
